# study.system: Serum paraoxonase/arylesterase 1 (Homo sapiens) (UniProt P27169)
# Sequence (P27169 whole entry): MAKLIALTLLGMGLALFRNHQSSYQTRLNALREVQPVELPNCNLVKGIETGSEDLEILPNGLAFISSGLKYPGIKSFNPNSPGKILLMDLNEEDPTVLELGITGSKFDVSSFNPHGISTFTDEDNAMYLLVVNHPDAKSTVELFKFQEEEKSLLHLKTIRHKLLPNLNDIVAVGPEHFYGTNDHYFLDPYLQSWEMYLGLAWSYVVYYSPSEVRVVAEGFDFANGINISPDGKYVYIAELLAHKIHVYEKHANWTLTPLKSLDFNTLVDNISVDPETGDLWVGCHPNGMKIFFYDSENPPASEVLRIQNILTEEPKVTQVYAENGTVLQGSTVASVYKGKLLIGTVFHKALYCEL
# run.description: Binding affinity to recombinant paraoxonase-1 (unknown origin) expressed in Escherichia coli
Answer F if Ka is under 1 ×10⁵ /M, and T if it is 1 ×10⁵ /M or more.

structure.smiles.string: O=c1c(-c2ccc(O)cc2)coc2cc(O)ccc12
study.system: Serum paraoxonase/arylesterase 1 (Homo sapiens) (UniProt P27169)
category.label: T
//
structure.smiles.string: COc1ccc([C@@H]2CC(=O)c3c(O)cc(O)cc3O2)cc1O
study.system: Serum paraoxonase/arylesterase 1 (Homo sapiens) (UniProt P27169)
category.label: F
//
structure.smiles.string: O=C1C[C@@H](c2ccc(O)cc2)Oc2cc(O)cc(O)c21
study.system: Serum paraoxonase/arylesterase 1 (Homo sapiens) (UniProt P27169)
category.label: F
//
structure.smiles.string: O=c1cc(-c2ccc(O)c(O)c2)oc2cc(O)cc(O)c12
study.system: Serum paraoxonase/arylesterase 1 (Homo sapiens) (UniProt P27169)
category.label: T
//
structure.smiles.string: O=c1c(-c2ccc(O)cc2)coc2cc(O)cc(O)c12
study.system: Serum paraoxonase/arylesterase 1 (Homo sapiens) (UniProt P27169)
category.label: F
//
structure.smiles.string: O=c1cc(-c2ccc(O)c(O)c2)oc2cc(O)ccc12
study.system: Serum paraoxonase/arylesterase 1 (Homo sapiens) (UniProt P27169)
category.label: T
//
structure.smiles.string: O=c1cc(-c2ccc(O)cc2)oc2cc(O)cc(O)c12
study.system: Serum paraoxonase/arylesterase 1 (Homo sapiens) (UniProt P27169)
category.label: T
//
structure.smiles.string: O=c1c(O)c(-c2ccc(O)c(O)c2)oc2cc(O)cc(O)c12
study.system: Serum paraoxonase/arylesterase 1 (Homo sapiens) (UniProt P27169)
category.label: T
//
structure.smiles.string: CC1(C)C=Cc2c(ccc3c2OC[C@@H](c2ccc(O)cc2O)C3)O1
study.system: Serum paraoxonase/arylesterase 1 (Homo sapiens) (UniProt P27169)
category.label: T
//
structure.smiles.string: O=c1c(O)c(-c2ccc(O)cc2)oc2cc(O)cc(O)c12
study.system: Serum paraoxonase/arylesterase 1 (Homo sapiens) (UniProt P27169)
category.label: T
//
structure.smiles.string: O=c1cc(-c2ccc(O)cc2O)oc2ccccc12
study.system: Serum paraoxonase/arylesterase 1 (Homo sapiens) (UniProt P27169)
category.label: F

Reference for the values: ChEMBL document CHEMBL2385049
